- measurement.description: soluble on expression in E. coli; label from the status in PepcDB or PDB records
recorded.metric: soluble on expression in E. coli

chain	recorded.metric	val
MTDEIISYQKAKLAKNLAISTASKWLFVHSSTGGSATNLSIAQYATLINGIQSAIKCQVILTAGKGERERAVELAEKLTDQNVVIYDKNDGLADFTRSLACADLFIAGSTGPLHIAGGLNIPTVGFYPSRLSATPRRWRPINQVDKHLAFCPPSGKQCEMDLTLISIEQALTSVIPFIKKMWQLSLEHHHHHH	soluble on expression in E. coli	soluble
MELQEVLHMNGGEGDTSYAKNSSYNLFLIRVKPVLEQCIQELLRANLPNINKCFKVGDLGCASGPNTFSTVRDIVQSIDKVGQEKKNELERPTIQIFLNDLFQNDFNSVFKLLPSFYRNLEKENGRKIGSCLIGAMPGSFYSRLFPEESMHFLHSCYCLHWLSQVPSGLVTELGISVNKGCIYSSKASRPPIQKAYLDQFTKDFTTFLRIHSEELISRGRMLLTFICKEDEFDHPNSMDLLEMSINDLVIEGHLEEEKLDSFNVPIYAPSTEEVKRIVEEEGSFEILYLETFNAPYDAGFSIDDDYQGRSHSPVSCDEHARAAHVASVVRSIYEPILASHFGEAILPDLSHRIAKNAAKVLRSGKGFYDSVIISLAKKPEKADM	soluble on expression in E. coli	soluble
MAGDPMIPVKNDPIDTRLAEMHEELRDLRNFPDSEFVGIIRELGFKCELCARCCTREFNDHVFLLDSDLERVRSIDPDAVTPAPYYEFCDQNGRFYVSGYALKTKPDGSCIFLENKRCRIYESRPSICRVYPHMLHREADETGKVDWRQISGLNEHGSYHSDLDDPACKEIALETRAYEEAYLQQVIGFFEAVKAHFRTNGLKHIQRTYDRKMREFLKGECDLEIFVYCKGGFEKQKLAKESERLEHHHHHH	soluble on expression in E. coli	soluble

----------
- measurement.description: soluble on expression in E. coli; label from the status in PepcDB or PDB records
recorded.metric: soluble on expression in E. coli

Example entries and their recorded answers appear below.
chain	soluble on expression in E. coli
MNIRERKRKHLEACLEGEVAYQKTTTGLEGFRLRYQALAGLALSEVDLTTPFLGKTLKAPFLIGAMTGGEENGERINLALAEAAEALGVGMMLGSGRILLERPEALRSFRVRKVAPKALLIANLGLAQLRRYGRDDLLRLVEMLEADALAFHVNPLQEAVQRGDTDFRGLVERLAELLPLPFPVMVKEVGHGLSREAALALRDLPLAAVDVAGAGGTSWARVEEWVRFGEVRHPELCEIGIPTARAILEVREVLPHLPLVASGGVYTGTDGAKALALGADLLAVARPLLRPALEGAERVAAWIGDYLEELRTALFAIGARNPKEARGRVERV	soluble
MGHHHHHHGGHMSLHSGSVEHCIKGRSRRAAPRSEHTGRMADIARKASAHWEGDLKSGNGTITTESGVLSQAQYSFKTRFENGKGTNPEELLASAHAGCFTMQLSALLAEHGHEIKALDTDATCEMVKDGPGFKINHMHLRVRAQLTGSDQADFEAHVKDAAEKCPLSRIMQGNVEVTHEAILEGEGGS	soluble
MSSKPLYTILTVFNPIFIYFTKRDNLHTLRFKKDRAIKISEELFPDELCERCGRCCILHAYKTEDGIKTIYCEHLDPETKLCKVYKDRFKHRCLTVMEGILAGVFPKDCPYVKNLKNYEEPWFYRHLRDLEHHHHHH	not soluble
MAGDIILRVEDLEKRFGGIVALDKVNLEIERGKVTLLIGPNGSGKTTLVNVISGFYKPDGGRVLFKGRDITGMSPHEISKLGLVRTFQIPKPFTNLTVLENVLTAADSPGENVYLAGLARRLWLGFEKRAAARAFEILGWVGLDHMWDRRSGELSGGQMKLLEIARAIMKGAEMIIMDEPAAGVNPRLAGSIMERIKYLAREKGITFLIIEHRIGLVKEYVDRVYAMSMGKVIASGKPDEVLNNPVVLESYLGG	soluble

Exam item: Field request: soluble on expression in E. coli | item: MGSDKIHHHHHHMDFQEKIEELRKIIKDNIEPLITSDYVHLDNPYHGNIGDILIWEGERQFLSSIKYKCLQSSSNSWCENYLHPETVILFNGGGNFGDLYRECQDFRLRVIEQFPNNRIIMFPQSIWYEDESLIAKDAAVMARHNDLTLCARDKWSYNFLKEHFGKNKILLVPDMAFYISDEYLNKYRECVFWGQKLYLRRIDKEMDFSTILDDLRGFDIRDWPSLERRPICLLILRIMKRAAYYLQKITCLTVLQRFVNRLADEYAIRIVRPYLLKRGCDFISPYSEVITTRLHGLILSILFHKPVYYINNTTGKLSAYVDTWHLQDILEVSPYVDKILEKHVD
Marked response: not soluble

Exam item: Field request: soluble on expression in E. coli | item: GPGSMHDLPEGFEFMEHKVVNKDIHAPHENLETLRLTLTRQDEFLLREEPVKCVTVTGTNGEYGIYPGHAYKIVQLNPSPLTVEYTDGTTKKYFVSGGFAHINNEGSCDVNTVECTLLDDLDLAIAEKELAAQQAALGSAKDDKAKSVVEIRISVIEAVIAALKHH
Marked response: soluble
